- System: Streptococcus pyogenes
- experiment.summary: Antibacterial activity against Streptococcus pyogenes PSCB-0545
- Type: functional
Entries annotated with measured log10 MIC
measurement.name: log10 MIC (log10 of the value in mg/L)

>>> test_result("CC[C@H]1OC(=O)/C=C\\[C@H](C)[C@@H](OC2OC(C)C(O)C(N(C)C)C2O)[C@@H](CC=O)C[C@@H](C)C(=O)/C=C/C(C)=C/[C@@H]1COC1OC(C)C(O)C(OC)C1OC (some centres undefined)")
0.00
>>> test_result("CC[C@H]1OC(=O)C[C@@H](OC(C)=O)[C@H](C)[C@@H](OC2OC(C)C(O)C(N(C)C)C2O)[C@@H](CC=O)C[C@@H](C)C(=O)/C=C/C(C)=C/[C@@H]1COC1OC(C)C(O)C(OC)C1OC (some centres undefined)")
0.30
>>> test_result("CC[C@H]1OC(=O)C[C@@H](O)[C@H](C)[C@@H](OC2OC(C)C(O)C(N(C)C)C2O)[C@@H](C/C=C/C(=O)OC)C[C@@H](C)C(=O)/C=C/C(C)=C/[C@@H]1COC1OC(C)C(O)C(OC)C1OC (some centres undefined)")
-0.30
>>> test_result("CCOC(=O)/C=C/C[C@H]1C[C@@H](C)C(=O)/C=C/C(C)=C/[C@H](COC2OC(C)C(O)C(OC)C2OC)[C@@H](CC)OC(=O)C[C@@H](OC(=O)Cc2ccc([N+](=O)[O-])cc2)[C@H](C)[C@H]1OC1OC(C)C(O)C(N(C)C)C1O (some centres undefined)")
-0.30
>>> test_result("CC[C@H]1OC(=O)C[C@@H](O)[C@H](C)[C@@H](OC2OC(C)C(O)C(N(C)C)C2O)[C@@H](C/C=C/C(=O)O)C[C@@H](C)C(=O)/C=C/C(C)=C/[C@@H]1COC1OC(C)C(O)C(OC)C1OC (some centres undefined)")
2.11
>>> test_result("CCOC(=O)/C=C/C[C@H]1C[C@@H](C)C(=O)/C=C/C(C)=C/[C@H](COC2OC(C)C(O)C(OC)C2OC)[C@@H](CC)OC(=O)C[C@@H](O)[C@H](C)[C@H]1OC1OC(C)C(O)C(N(C)C)C1O (some centres undefined)")
0.00
>>> test_result("CC[C@H]1OC(=O)CC(=O)[C@H](C)[C@@H](O[C@@H]2O[C@@H](C)[C@@H](O)[C@@H](N(C)C)[C@H]2O)[C@H]2C[C@H](O)[C@@](C)(C2)C(=O)/C=C/C(C)=C/[C@@H]1CO[C@@H]1O[C@@H](C)[C@@H](O)[C@@H](OC)[C@@H]1OC")
1.20
>>> test_result("CC[C@H]1OC(=O)CC(=O)[C@H](C)[C@@H](O[C@@H]2O[C@@H](C)[C@@H](O)[C@@H](N(C)C)[C@H]2O)[C@H]2C[C@@H](O)[C@](C)(C2)C(=O)/C=C/C(C)=C/[C@@H]1CO[C@@H]1O[C@@H](C)[C@@H](O)[C@@H](OC)[C@@H]1OC")
1.20
>>> test_result("CC[C@H]1OC(=O)C[C@@H](O)[C@H](C)[C@@H](OC2OC(C)C(OC3CC(C)(O)C(O)C(C)O3)C(N(C)C)C2O)[C@@H](CC=O)C[C@@H](C)C(=O)CCC(C)C[C@@H]1COC1OC(C)C(O)C(OC)C1OC (some centres undefined)")
0.00
